Target: T1, hTSLP-His (human, UniProt Q969D9 29-159, limits assumed)
T1 construct: bought; also called hTSLP (ACROBiosystems TSP-H52Hb); not shown: His tag
Experiment: competition ELISA, 7 nM TSLP-His pre-incubated with antibody; competitor Tezepelumab coated
Quantity: pIC50
Note: pIC50 values are expressed as the negative base-10 logarithm of concentration in M.

Field: example entries. Status: answers known.
BDG38.075 (antibody, V domains shown, IgG1) VH: QMQLVESGGGVVQPGRSLRLSCAASGFAFRTYGMHWVRQAPGKGLEWVAVIWYDGSATHYADSVKGRFTITRDNSKNTLNLQMNSLRAEDTAVYYCVRAPQWYLSAEAFDLWGQGTMVTVSS VL: SYVLTQPPSVSVAPGETATITCGGNLIGAYLVHWYQQKPGQAPVLVIYDDVDRPARIPERFSGSNSGNTATLTISRVEAGDEADYYCQVWDHDTNTMVFGGGTKLTVL    8.40
BDG38.117 (antibody, V domains shown, IgG1) VH: QMQLVESGGGVVQPGRSLTLSCAASGFEFRTYGMHWVRQAPGKGLEWVGVIWDDGSNTHYADSVKGRFTITRDNSKNTLNLQMNSLRAEDTAVYYCARAPQWYLTAEAFDLWGQGTMVTVSS VL: SYVLTQPPSVSVAPGETATITCGGNLIGAKLVHWYQQKPGQAPVLVIYDDSDRPSRIPERFSGSNIGNTATLTIEDVEAGDEADYYCQVWDYSSDTMVFGGGTKLTVL    8.21

binder BDG38.090 (antibody, V domains shown, IgG1) VH: QMQLVESGGGVVQPGRSLTLSCAASGFEFRTYGMHWVRQAPGKGLEWLGVIWDDGSNTHYADSVKGRFTITRDNSKNTLNLQMNSLRVEDTAVYYCARAPQWYLTAEAFDLWGQGTMVTVSS VL: SYILTQPPSVSVAPGETARITCGGNLIGARLVHWYQQKPGQAPVLVVYDDSDRPSRIPERFSGSNIGNTATLTIEDVEEGDEADYYCQVWDYYSDHMVFGGGTKLTVL , pIC50 observed: 8.14
